Molecular target: recombinant human TFPI (tissue factor pathway inhibitor) (human, UniProt P10646 29-304)
Test: cell-based or functional assay
Each item that follows carries a reported FXa assay % of FXa alone, 5 nM Ab, 10 nM TFPI.
Enter your answer as a number in %; do not include the unit.

Example results:
1) clone 1023 (antibody, V domains shown, scFv on yeast at selection; human IgG4/kappa IgG as purified) VH: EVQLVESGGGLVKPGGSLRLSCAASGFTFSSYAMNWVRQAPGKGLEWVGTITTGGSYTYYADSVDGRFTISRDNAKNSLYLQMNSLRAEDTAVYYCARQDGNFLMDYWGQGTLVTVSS VL: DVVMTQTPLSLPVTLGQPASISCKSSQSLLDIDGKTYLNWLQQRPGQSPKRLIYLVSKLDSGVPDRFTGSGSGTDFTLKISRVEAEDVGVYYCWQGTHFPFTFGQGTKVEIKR	26.6
2) clone 7 (antibody, V domains shown) VH: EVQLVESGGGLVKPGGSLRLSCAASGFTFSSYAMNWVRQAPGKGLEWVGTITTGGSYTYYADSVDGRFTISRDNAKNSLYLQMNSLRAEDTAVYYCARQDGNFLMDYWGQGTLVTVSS VL: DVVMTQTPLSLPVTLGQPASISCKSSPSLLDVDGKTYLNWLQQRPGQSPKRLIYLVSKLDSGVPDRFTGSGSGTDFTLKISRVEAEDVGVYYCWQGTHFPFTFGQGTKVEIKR	31
3) clone 8 (antibody, V domains shown) VH: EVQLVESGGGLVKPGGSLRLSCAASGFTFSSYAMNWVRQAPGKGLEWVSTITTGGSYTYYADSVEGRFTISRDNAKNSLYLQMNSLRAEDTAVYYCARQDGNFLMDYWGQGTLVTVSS VL: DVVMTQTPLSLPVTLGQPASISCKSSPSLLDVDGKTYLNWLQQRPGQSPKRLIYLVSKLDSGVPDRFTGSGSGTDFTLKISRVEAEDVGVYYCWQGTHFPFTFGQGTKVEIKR	33.8

Switching to the query record.
Which FXa assay % of FXa alone, 5 nM Ab, 10 nM TFPI is listed for clone 1 (antibody, V domains shown) VH: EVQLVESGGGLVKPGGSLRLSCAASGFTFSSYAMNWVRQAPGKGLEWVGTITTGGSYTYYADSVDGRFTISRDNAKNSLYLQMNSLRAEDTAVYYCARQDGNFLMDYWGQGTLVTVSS VL: DVVMTQTPLSLPVTLGQPASISCKSSPSLLDSDGKTYLNWLQQRPGQSPKRLIYLVSKLDSGVPDRFTGSGSGTDFTLKISRVEAEDVGVYYCWQGTHFPFTFGQGTKVEIKR ?
17.1
